Answer each item with its documented residual activity.
# target system: UniProt:Q6PHR2
# Sequence (Q6PHR2 whole entry, looked up): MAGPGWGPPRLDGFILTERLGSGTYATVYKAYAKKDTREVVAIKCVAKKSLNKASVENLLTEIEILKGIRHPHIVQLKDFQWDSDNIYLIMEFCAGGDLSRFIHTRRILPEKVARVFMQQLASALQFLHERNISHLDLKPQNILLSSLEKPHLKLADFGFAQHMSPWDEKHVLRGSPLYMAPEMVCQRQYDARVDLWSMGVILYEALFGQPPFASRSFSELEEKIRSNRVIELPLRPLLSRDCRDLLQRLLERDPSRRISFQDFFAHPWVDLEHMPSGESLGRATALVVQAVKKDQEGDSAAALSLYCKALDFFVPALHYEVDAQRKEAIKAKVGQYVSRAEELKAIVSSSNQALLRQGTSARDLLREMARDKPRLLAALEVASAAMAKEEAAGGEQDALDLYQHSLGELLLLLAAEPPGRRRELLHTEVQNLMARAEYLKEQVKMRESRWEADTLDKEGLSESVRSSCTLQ
# test details: radiometric filter-binding kinase assay, Kinase HotSpot
# settings: compound 0.5 µM; ATP 10 µM
One number for each entry, in %.

- CN(C)C[C@H]1CCn2c(c(C3=C(c4cn(C)c5ccccc45)C(=O)NC3=O)c3ccccc32)C1: 88.9
- O=C1Cc2c([nH]c3ccc(Br)cc23)-c2ccccc2N1: 83.2
- Oc1ccc(Nc2nc(-c3ccc(Cl)cc3)cs2)cc1: 94.4
- CN([C@@H](Cc1ccc(OS(=O)(=O)c2cccc3cnccc23)cc1)C(=O)N1CCN(c2ccccc2)CC1)S(=O)(=O)c1cccc2cnccc12: 98.6
- COc1cc2ncnc(N3CCN(C(=O)Nc4ccc(Oc5ccccc5)cc4)CC3)c2cc1OC: 100
- Cn1nc2c3c(cccc31)C(=O)c1ccccc1-2: 94.9
- Nc1nccc(-c2c(-c3ccc(F)cc3)ncn2C2CCNCC2)n1: 95.5
- O=C(CCCc1ccc(-c2ccccc2F)cc1)Nc1ccc(O)cc1: 103
- COc1cc2ncc(-c3ccccc3)nc2cc1OC: 89.4

# input for lookup
*Q* Entry "O=C1NC(=O)/C(=C\c2ccc3nccnc3c2)S1" : reported residual activity = ?
*A* 102

====

Answer each item with its documented residual activity.
# target system: MAPKAPK5 (human) (UniProt Q8IW41)
# Sequence (Q8IW41 whole entry, looked up): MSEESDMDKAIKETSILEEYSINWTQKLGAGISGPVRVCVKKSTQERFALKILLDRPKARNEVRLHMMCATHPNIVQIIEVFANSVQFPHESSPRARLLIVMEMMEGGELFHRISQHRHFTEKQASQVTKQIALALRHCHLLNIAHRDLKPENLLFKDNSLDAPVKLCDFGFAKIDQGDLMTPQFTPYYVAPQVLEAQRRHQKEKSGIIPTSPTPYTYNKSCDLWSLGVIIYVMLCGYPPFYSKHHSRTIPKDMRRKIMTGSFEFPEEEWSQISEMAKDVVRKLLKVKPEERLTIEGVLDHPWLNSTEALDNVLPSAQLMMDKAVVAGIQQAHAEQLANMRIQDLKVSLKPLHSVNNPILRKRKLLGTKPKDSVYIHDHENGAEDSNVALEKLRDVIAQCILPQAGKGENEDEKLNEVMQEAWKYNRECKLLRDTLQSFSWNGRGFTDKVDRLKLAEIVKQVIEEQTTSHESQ
# test details: radiometric filter-binding kinase assay, Kinase HotSpot
# settings: compound 0.5 µM; ATP 10 µM
Numbers only, in %.

Answered examples (10):
- CCN(CC)CCCCN1c2ccccc2Oc2ccc(Cl)cc21: 95.9
- O=C1Nc2ccccc2/C1=C1/Nc2ccccc2/C1=N\OCCC(O)CO (stereo not given): 86.8
- Nc1nccc(-c2c(-c3ccc(F)cc3)ncn2C2CCNCC2)n1: 94
- COc1cc2ncnc(N3CCN(C(=O)Nc4ccc(Oc5ccccc5)cc4)CC3)c2cc1OC: 118
- CCn1cnc2c(Nc3cccc(Cl)c3)nc(N[C@@H]3CCCC[C@@H]3N)nc21: 98.3
- CC(=O)O/N=C1\C(=C2\C(=O)Nc3cc(Br)ccc32)Nc2ccccc21: 94.9
- CC(C)[C@H](CO)Nc1nc(Nc2cc(N)cc(Cl)c2)c2ncn(C(C)C)c2n1: 95.8
- Cn1nc2c3c(cccc31)C(=O)c1ccccc1-2: 94.5
- COc1ccc(OC)c2c(=S)c3ccccc3[nH]c12: 109
- Oc1ccc(Nc2nc(-c3ccc(Cl)cc3)cs2)cc1: 96.8

Give me residual activity for each of these compounds, listed below.
1. Cn1cnc2cc3c(Nc4cccc(Br)c4)ncnc3cc21
2. CN([C@@H](Cc1ccc(OS(=O)(=O)c2cccc3cnccc23)cc1)C(=O)N1CCN(c2ccccc2)CC1)S(=O)(=O)c1cccc2cnccc12
3. COc1ccc(CNC(=O)Nc2ncc([N+](=O)[O-])s2)cc1
4. O=C(CCCc1ccc(-c2ccccc2F)cc1)Nc1ccc(O)cc1
5. COc1cc2ncc(-c3ccccc3)nc2cc1OC
6. O=C(O)/C=C/c1cc(Br)c(Br)c(Br)c1Br

*A*
130
97
90.1
91.4
88.1
72.6

====

# target system: WNK2 (human)
# test details: radiometric filter-binding kinase assay, Kinase HotSpot
# settings: compound 0.5 µM; ATP 10 µM
recorded endpoint: residual activity (%)
One number for each entry, in %.

Answered examples (10):
• Cn1sc(=O)n(Cc2ccccc2)c1=O = 99.1
• CC(C)c1nn(-c2c(Cl)cccc2Cl)c2nc(Cc3ccc(OCCO)cc3)nc(O)c12 = 95.7
• O=C1NC(=O)/C(=C\c2ccc3nccnc3c2)S1 = 115
• O=C1Nc2ccccc2/C1=C1/Nc2ccccc2/C1=N\OCCC(O)CO (configuration not stated) = 85.4
• O=C1Cc2c([nH]c3ccc(Br)cc23)-c2ccccc2N1 = 112
• Cc1nc2cc3nc(-c4cccs4)cnc3cc2n1C = 123
• CN([C@@H](Cc1ccc(OS(=O)(=O)c2cccc3cnccc23)cc1)C(=O)N1CCN(c2ccccc2)CC1)S(=O)(=O)c1cccc2cnccc12 = 100
• O=C(CCCc1ccc(-c2ccccc2F)cc1)Nc1ccc(O)cc1 = 106
• Cn1cnc2cc3c(Nc4cccc(Br)c4)ncnc3cc21 = 89.7
• COc1cc2ncnc(N3CCN(C(=O)Nc4ccc(Oc5ccccc5)cc4)CC3)c2cc1OC = 102

Give me residual activity for each of these molecules, listed below.
1. CCn1cnc2c(Nc3cccc(Cl)c3)nc(N[C@@H]3CCCC[C@@H]3N)nc21
2. CC(=O)O/N=C1\C(=C2\C(=O)Nc3cc(Br)ccc32)Nc2ccccc21
3. CN(C)C[C@H]1CCn2c(c(C3=C(c4cn(C)c5ccccc45)C(=O)NC3=O)c3ccccc32)C1
4. O=C1Nc2ccccc2/C1=C1\Nc2ccccc2\C1=N/O
5. O=C1NC(=O)C(c2cn(CCCO)c3ncccc23)=C1c1cnccn1
6. CC(C)[C@H](CO)Nc1nc(Nc2cc(N)cc(Cl)c2)c2ncn(C(C)C)c2n1

*A*
[94.1, 98.6, 103, 99.8, 104, 112]

====

# target system: IRAK1 (human) (UniProt P51617)
# Sequence (P51617 whole entry, looked up): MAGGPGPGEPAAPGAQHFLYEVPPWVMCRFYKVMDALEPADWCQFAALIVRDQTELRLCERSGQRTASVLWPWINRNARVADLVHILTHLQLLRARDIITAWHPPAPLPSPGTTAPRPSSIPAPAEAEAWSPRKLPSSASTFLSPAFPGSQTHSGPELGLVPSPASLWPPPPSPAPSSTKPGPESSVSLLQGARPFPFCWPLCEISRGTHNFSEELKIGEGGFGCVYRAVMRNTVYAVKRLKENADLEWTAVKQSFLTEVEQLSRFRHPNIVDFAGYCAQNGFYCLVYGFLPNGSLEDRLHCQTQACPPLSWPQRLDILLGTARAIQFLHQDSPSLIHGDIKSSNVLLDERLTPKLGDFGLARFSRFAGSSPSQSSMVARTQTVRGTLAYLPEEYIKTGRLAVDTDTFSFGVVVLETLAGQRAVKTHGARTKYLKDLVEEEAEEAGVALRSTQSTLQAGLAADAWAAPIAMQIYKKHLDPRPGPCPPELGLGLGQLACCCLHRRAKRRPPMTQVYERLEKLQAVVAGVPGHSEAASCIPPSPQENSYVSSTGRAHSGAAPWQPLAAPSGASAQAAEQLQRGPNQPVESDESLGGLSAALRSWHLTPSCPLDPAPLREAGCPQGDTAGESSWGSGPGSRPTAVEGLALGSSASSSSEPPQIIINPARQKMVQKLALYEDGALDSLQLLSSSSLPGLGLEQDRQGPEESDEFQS
# test details: radiometric filter-binding kinase assay, Kinase HotSpot
# settings: compound 0.5 µM; ATP 10 µM
Rule: residual activity below 90% gives criterion met. Equal to or above 90% gives criterion not met.

Sample answers from the record:
- COc1cc2ncnc(N3CCN(C(=O)Nc4ccc(Oc5ccccc5)cc4)CC3)c2cc1OC: criterion not met
- Cn1cnc2cc3c(Nc4cccc(Br)c4)ncnc3cc21: criterion met
- O=C1NC(=O)/C(=C\c2ccc3nccnc3c2)S1: criterion met
- O=C(O)/C=C/c1cc(Br)c(Br)c(Br)c1Br: criterion not met

Now for another entry.
*Q* Dear colleague, could you confirm whether residual activity of "CCN(CC)CCCCN1c2ccccc2Oc2ccc(Cl)cc21" falls below 90%? Thanks.
*A* criterion not met

====

# target system: CSNK1A1 (human)
# test details: radiometric filter-binding kinase assay, Kinase HotSpot
# settings: compound 0.5 µM; ATP 10 µM
Answer each item with its documented residual activity.
One number for each entry, in %.

Answered examples (5):
* O=C1Nc2ccccc2/C1=C1\Nc2ccccc2\C1=N/O | 48.2
* Cc1nc2cc3nc(-c4cccs4)cnc3cc2n1C | 96.7
* O=C(CCCc1ccc(-c2ccccc2F)cc1)Nc1ccc(O)cc1 | 101
* CN([C@@H](Cc1ccc(OS(=O)(=O)c2cccc3cnccc23)cc1)C(=O)N1CCN(c2ccccc2)CC1)S(=O)(=O)c1cccc2cnccc12 | 99
* CCN(CC)CCCCN1c2ccccc2Oc2ccc(Cl)cc21 | 96.1

Give me residual activity for each of these molecules, listed below.
1. Nc1nccc(-c2c(-c3ccc(F)cc3)ncn2C2CCNCC2)n1
2. Cn1sc(=O)n(Cc2ccccc2)c1=O
3. O=C(Nc1cccc(Nc2cc(Nc3cccc(C(F)(F)F)c3)ncn2)c1)C1CC1
4. O=C1Nc2ccccc2/C1=C1/Nc2ccccc2/C1=N\OCCC(O)CO (stereo unspecified)

*A*
2.82
99.5
102
84.8

Give me residual activity for each of these molecules, listed below.
1. Nc1nnc2[nH]c3ccccc3nc1-2
2. O=C1NC(=O)C(c2cn(CCCO)c3ncccc23)=C1c1cnccn1
3. CCn1cnc2c(Nc3cccc(Cl)c3)nc(N[C@@H]3CCCC[C@@H]3N)nc21
4. COc1cc2ncc(-c3ccccc3)nc2cc1OC
5. O=C1NC(=O)/C(=C\c2ccc3nccnc3c2)S1
6. COc1ccc(OC)c2c(=S)c3ccccc3[nH]c12

*A*
[101, 67, 98.7, 100, 89.2, 102]

*Q* Entry "CN(C)C[C@H]1CCn2c(c(C3=C(c4cn(C)c5ccccc45)C(=O)NC3=O)c3ccccc32)C1" : reported residual activity = ?
*A* 98.5

====

Answer each item with its documented residual activity.
# target system: KDR (human)
# test details: radiometric filter-binding kinase assay, Kinase HotSpot
# settings: compound 0.5 µM; ATP 10 µM
One number for each entry, in %.

• COc1cc2ncnc(N3CCN(C(=O)Nc4ccc(Oc5ccccc5)cc4)CC3)c2cc1OC = 82.7

Give me residual activity for each of these molecules, listed below.
1. O=C(O)/C=C/c1cc(Br)c(Br)c(Br)c1Br
2. O=C1Nc2ccccc2/C1=C1/Nc2ccccc2/C1=N\OCCC(O)CO (stereo not given)
3. Oc1ccc(Nc2nc(-c3ccc(Cl)cc3)cs2)cc1
4. O=C1NC(=O)C(c2cn(CCCO)c3ncccc23)=C1c1cnccn1
5. Cn1cnc2cc3c(Nc4cccc(Br)c4)ncnc3cc21

*A*
1. 90.1
2. 56.4
3. 101
4. 82.1
5. 71.7

====

# target system: GSG2 (human)
# test details: radiometric filter-binding kinase assay, Kinase HotSpot
# settings: compound 0.5 µM; ATP 10 µM
// false (0) strictly below 90% in residual activity; true (1) otherwise

Sample answers from the record:
* CC(=O)O/N=C1\C(=C2\C(=O)Nc3cc(Br)ccc32)Nc2ccccc21 | false (0)
* CN([C@@H](Cc1ccc(OS(=O)(=O)c2cccc3cnccc23)cc1)C(=O)N1CCN(c2ccccc2)CC1)S(=O)(=O)c1cccc2cnccc12 | true (1)
* O=C1Nc2ccccc2/C1=C1\Nc2ccccc2\C1=N/O | false (0)

*Q* Check if residual activity >= 90% (inclusive). Item: "CC(C)[C@H](CO)Nc1nc(Nc2cc(N)cc(Cl)c2)c2ncn(C(C)C)c2n1"
*A* true (1)
